measured_target: T1, human FGFR3b expressed with a C-terminal myc-myc-hexahistidine tag (hFGFR3b.mmH) (human)
T1 construct: monomeric; also called REGN3152; monomeric human FGFR3b
T1 chain: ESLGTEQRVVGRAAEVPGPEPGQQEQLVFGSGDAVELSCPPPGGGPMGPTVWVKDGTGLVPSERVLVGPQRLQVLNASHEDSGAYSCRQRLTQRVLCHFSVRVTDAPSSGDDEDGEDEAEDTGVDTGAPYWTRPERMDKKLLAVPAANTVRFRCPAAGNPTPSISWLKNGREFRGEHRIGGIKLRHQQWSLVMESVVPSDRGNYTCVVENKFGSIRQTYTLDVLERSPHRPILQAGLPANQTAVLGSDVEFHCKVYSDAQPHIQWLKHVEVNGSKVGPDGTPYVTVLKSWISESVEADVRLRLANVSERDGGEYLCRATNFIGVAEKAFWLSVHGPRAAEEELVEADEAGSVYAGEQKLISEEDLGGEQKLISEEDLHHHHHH
protocol_notes: SPR (Biacore), captured mAb, 25 C
Criterion: t½ strictly under 5 h. Met: fulfilled. Not met: not fulfilled.

Worked set:
[
  {
    "binder": "H4H30045P (antibody, human IgG4 S228P, kappa, V domains shown) VH: QVQLVQSGAEVKKPGASVKVSCKTSGYRFVNYGFSWVRQAPGQGLEWMGWISPYNGNTNYIQNLQDRITMTTDTSTNTAYMELTNLRSDDTAVYYCATLTGVHFDYWGQGTLVTVSS VL: AIQMTQSPSSLSASVGDRVTITCRASQGIRNDLGWYQQKPGKAPNLLIFETSRLQSGVPSRFSGSGSGTDFTLTINSLQPEDFATYYCLQDYNYPWTFGQGTKVEIKR",
    "assigned_class": "fulfilled"
  },
  {
    "binder": "H4H30076P (antibody, human IgG4 S228P, kappa, V domains shown) VH: EVQLVESGGGLVQPGGSLRLSCAASGFTVSSNYMSWVRQAPGKGLEWVSIIYSGGHTYYSDSVKGRFTISRHNSKNTLYLQMNSLRGGDTAVYYCARGYTSGWYGFDFWGQGTLVTVSS VL: DIQMTQSPSSVSASVGDRVTITCRASQGISTWLAWYQQKPGKAPKLLIYAASSLQSGVPSRFSGTGSGTDFTLTISSLQPEDFATYYCQQTNSFPWTFGQGTKVEIKR",
    "assigned_class": "fulfilled"
  },
  {
    "binder": "H4H30061P (antibody, human IgG4 S228P, kappa, V domains shown) VH: EVQLVESGGGLAQPGGSLKLSCEASGFTFSDSAMHWVRQASGKGLEWVGRIRSKANSYATGYAASVKGRFTISRDDSKNMAFLEMNSLKTEDTAVYYCLRQTYGDPWGQGTLVTVSS VL: DVVMTQSPLSLSVTLGQPASISCRSSLSLVYSDGNNYLNWFQQRPGQSPRRLLYKVFNRDSGVPDRFSGSGSGTDFTLKISRVEAEDVGVYYCMQGTHWPWTFGQGTKVEIKR",
    "assigned_class": "fulfilled"
  },
  {
    "binder": "H4H30071P (antibody, human IgG4 S228P, kappa, V domains shown) VH: QVQLQQSGPGLVKPSQTLSLTCAISGDSVSRNSAAWNWIRQSPSSGLEWLGRTYYRSKWFYDYAISVKSRITVNPDTSKNQFSLHLNSVTPEDTAVYYCARGYGGYEDYFDYWGQGTLVTVSS VL: DIQMTQSPSSVSASVGDRVTITCRASQGISSWLAWYQQKPGKAPKLLIYGASSLQSGVPSRFSGSGSGTDFTLTISSLQPEDFATYFCQQGSSFPYTFGQGTKLEIKR",
    "assigned_class": "not fulfilled"
  }
]

Here's an entry: anti-FGFR3-hIgG1 comparator (REGN6331) (antibody, V domains shown, Human IgG1 comparator; also called COMP6331; anti-FGFR3 comparator antibody) VH: EVQLVESGGGLVQPGGSLRLSCAASGFTFTSTGISWVRQAPGKGLEWVGRIYPTSGSTNYADSVKGRFTISADTSKNTAYLQMNSLRAEDTAVYYCARTYGIYDLYVDYTEYVMDYWGQGTLVTVSS VL: DIQMTQSPSSLSASVGDRVTITCRASQDVDTSLAWYKQKPGKAPKLLIYSASFLYSGVPSRFSGSGSGTDFTLTISSLQPEDFATYYCQQSTGHPQTFGQGTKVEIKR . Is its t½ below 5 h?
fulfilled

Source of measurements: patent US20240173426A1
